# TARGET OR TEST SYSTEM: Cytochrome P450 2D6 (Homo sapiens) (UniProt P10635)
# Sequence (P10635 whole entry, looked up): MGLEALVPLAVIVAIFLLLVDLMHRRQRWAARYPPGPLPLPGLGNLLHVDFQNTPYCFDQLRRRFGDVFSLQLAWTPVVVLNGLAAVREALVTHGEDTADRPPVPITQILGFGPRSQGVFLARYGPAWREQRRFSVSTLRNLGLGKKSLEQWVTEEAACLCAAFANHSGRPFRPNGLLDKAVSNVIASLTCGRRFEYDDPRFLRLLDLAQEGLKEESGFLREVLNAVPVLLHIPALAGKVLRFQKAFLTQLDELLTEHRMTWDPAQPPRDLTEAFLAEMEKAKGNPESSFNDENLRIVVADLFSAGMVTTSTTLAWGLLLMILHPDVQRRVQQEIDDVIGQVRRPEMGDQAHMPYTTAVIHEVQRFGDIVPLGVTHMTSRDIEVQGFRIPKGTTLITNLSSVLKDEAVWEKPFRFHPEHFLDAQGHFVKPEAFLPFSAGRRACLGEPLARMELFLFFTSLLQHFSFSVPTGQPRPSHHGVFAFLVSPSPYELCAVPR
# METHOD DESCRIPTION: Cytochrome P450 family 2 subfamily D member 6 (CYP2D6) small molecule antagonists: luciferase biochemical (cell-free) qHTS assay (AID 1645840); also: nearly all actives have a fitted effect of over 55% in size
# EXPERIMENTAL PARAMETERS: P450-Glo CYP2D6 enzyme, luciferin luminescence, 1 h; series mostly up to 57.4 µM
Inconclusive results are not listed. The source made the active and inactive calls. Calls follow the shape of the dose curve; as a rule, active = well fitted inhibition curve with a large enough effect in the repeat runs; inconclusive = weak or mixed curves; inactive = flat fitted curve, though single readings scatter. Where a SMILES comes first, the peptide text is derived from it. Bridges are numbered along the chain shown (N, C = ends). [ ]: non-standard residue; d: D form. The star is where a group is joined. X1 = CCC(C)C(N)C1=NC(C(=O)*)CS1; dOrn = NCCC[C@@H](N)C(=O)O
Classes used: active, inactive

1) CCOc1ccc(C(Nc2ccccn2)c2ccc3ccc(C)nc3c2O)cc1C (stereo not drawn) :: inactive
2) CCc1cc2c(=O)c(-c3nc4ccccc4s3)coc2c(CN2CCCCC2)c1O :: inactive
3) CNC(=O)Nc1ccc(OC)c(NC(=O)NC(=O)c2cc(F)c(F)cc2Cl)c1 :: inactive
4) Cc1nn(C)c(COc2ccc(N3CCN(S(=O)(=O)N(C)C)CC3)cc2)c1-c1cccc2c(CCCOc3cccc4ccccc34)c(C(=O)O)n(CCN3CCOCC3)c12 :: inactive
5) CC(=O)N1CCN(NC(=O)c2ccc(F)cc2)CC1 :: inactive
6) O=C1CC(c2ccc([N+](=O)[O-])cc2)=NN1c1ccccc1 :: inactive
7) CC1(C)CCC(C)(C)c2cc([C@@H](O)C(=O)Nc3ccc(C(=O)O)cc3F)ccc21 :: inactive
8) Cc1ccc(C(=O)Nc2ccc(Oc3cc4cnn(C)c4cc3-c3cn[nH]c3)c(F)c2)c(=O)n1-c1ccc(F)cc1 :: inactive
9) CNC(=O)O[C@H]1COc2ccc(N3CCN(C4COC4)CC3)cc2[C@@H]1NC(=O)c1ccc(F)cc1 :: inactive
10) COc1ccc(C[C@H](N)C(=O)N[C@H]2[C@@H](O)[C@H](n3cnc4c(N(C)C)ncnc43)O[C@@H]2CO)cc1 :: inactive
11) CCn1nnnc1NCc1ccc(C(C)C)cc1 :: inactive
12) CCC(C)C(N)C1=NC(C(=O)N[C@@H](CC(C)C)C(=O)N[C@H](CCC(=O)O)C(=O)N[C@H](C(=O)N[C@H]2CCCCNC(=O)[C@H](CC(N)=O)NC(=O)[C@@H](CC(=O)O)NC(=O)[C@H](Cc3cnc[nH]3)NC(=O)[C@@H](Cc3ccccc3)NC(=O)[C@H]([C@@H](C)CC)NC(=O)[C@@H](CCCN)NC2=O)[C@@H](C)CC)CS1 (stereo partly drawn) (X1-L[dE]IK[dOrn]I[dF]H[dD]N; lactam 4-C) :: inactive
13) COc1cc(N2CCC(N(C)C)CC2)ccc1Nc1ncc(Cl)c(Nc2ccccc2P(C)(C)=O)n1 :: inactive
14) CON(C)C(=O)N1N=C(c2cc(F)ccc2F)S[C@@]1(CCCN)c1ccccc1 :: active
15) O=C(COc1ccc(Cl)cc1)NC1CCC(NC(=O)COc2ccc(Cl)cc2)CC1 (stereo not drawn) :: inactive
16) Cc1cc(C)cc(NC(=O)Cc2ccc(OC(C)(C)C(=O)O)cc2)c1 :: inactive
17) CNC(=O)c1ccc(Nc2ncc(C(F)(F)F)c(NCc3nccnc3N(C)S(C)(=O)=O)n2)cc1 :: inactive
18) O=C(O)CCC(=O)C(=O)O :: inactive
